# Tested on: Fibroblast
# assay_overview: Incucyte cell viability with human fibroblast; also: filed as whole numbers so only -1 and 0 and 1 occur
# Format: toxicity, cell-based
# experimental_parameters: 24 h, 10 µM, compound concentration 10 uM, replicate number 1, timepoint 24 hours
Listing: Growth Rate of selected molecules
API note: the answer field is a bare number with no unit suffix.

Past entries and their recorded results:
record_smiles	measured_result
CC(C)c1onc(-c2c(Cl)cccc2Cl)c1COc1ccc(/C=C/c2cccc(C(=O)O)c2)c(Cl)c1	0
O=C(Nc1ccc(-c2ccnc(Nc3ccc(N4CCOCC4)cc3)n2)cc1)[C@@H]1CCCN1	0

Record summary for Cc1cn(-c2cc(NC(=O)c3ccc(C)c(Nc4nccc(-c5cccnc5)n4)c3)cc(C(F)(F)F)c2)cn1 : reported Growth Rate = 0

Recorded Growth Rate (molecule CCCNS(=O)(=O)Nc1ncnc(OCCOc2ncc(Br)cn2)c1-c1ccc(Br)cc1 ): 0

Input Cl.O=C([C@@H](Cc1cccc(C(F)(F)F)c1)NS(=O)(=O)c1cc(F)c2c(c1)CCNC2)N1CCCC1 . Output Growth Rate: 1
